# tested_system: androgen receptor (AR) splicing variant AR-v7 (Homo sapiens, UniProt P10275)
# Construct: The degradation activity of compounds on AR-v7 in 22RV1 cells; host or cells: 22RV1 cells
# assay_procedure: Degradation activity on androgen receptor splicing variant AR-v7 in 22RV1 cells (ELISA)
# Assay type: cell-based
# condition_notes: AR-v7 degradation in 22RV1 cells, 48 h, numeric values
quantity_kind: DC50 (µM)
Number in µM, nothing else.

compound	tested_system	DC50 [µM]
CC(C)(c1ccc(OCc2ccnc(NS(C)(=O)=O)n2)cc1)c1ccc(OCC2CCN(CCCCOCCCCNc3ccc4c(c3)C(=O)N(C3CCC(=O)NC3=O)C4=O)C2)cc1 (centres unmarked)	androgen receptor (AR) splicing variant AR-v7 (Homo sapiens, UniProt P10275)	6.97

Continue with the compound presented below.
Fill in the blank: the reported DC50 of CC(C)(c1ccc(OCCCCCCCCOCCCCNc2ccc3c(c2)C(=O)N(C2CCC(=O)NC2=O)C3=O)cc1)c1ccc(OCc2ccnc(N3CCCS3(=O)=O)n2)cc1 (centres unmarked) is ____.
7.58

* * *

# tested_system: androgen receptor (AR) splicing variant AR-v7 (Homo sapiens)
# Construct: The degradation activity of compounds on AR-v7 in 22RV1 cells; host or cells: 22RV1 cells
# assay_procedure: Degradation activity on androgen receptor splicing variant AR-v7 in 22RV1 cells (ELISA)
# Type: cell-based
# condition_notes: AR-v7 degradation in 22RV1 cells, 48 h, class symbols
quantity_kind: DC50

Examples with their reported DC50 follow.
molecule	tested_system	DC50
Cc1nc(-c2ccc(Oc3ccc(C4(c5ccc(O[C@H]6C[C@H](Nc7ccc8c(c7)C(=O)N(C7CCC(=O)NC7=O)C8=O)C6)cc5)CCCC4)cc3)nn2)no1 (some centres unmarked) [Example 338]	androgen receptor (AR) splicing variant AR-v7 (Homo sapiens)	< 10 nM
CC(C)(c1ccc(Oc2cnc(N3CC4(COC4)C3)cn2)cc1)c1ccc(O[C@H]2C[C@H](Nc3ccc4c(c3)C(=O)N(C3CCC(=O)NC3=O)C4=O)C2)cc1 (some centres unmarked) [Example 573]	androgen receptor (AR) splicing variant AR-v7 (Homo sapiens)	11 to 100 nM
CC(C)(c1ccc(OCc2nc(-n3nccn3)ccc2F)cc1)c1ccc(O[C@H]2C[C@H](Nc3ccc4c(c3)C(=O)N(C3CCC(=O)NC3=O)C4=O)C2)cc1 (some centres unmarked) [Example 284]	androgen receptor (AR) splicing variant AR-v7 (Homo sapiens)	11 to 100 nM
CC(C)(c1ccc(OCc2nc(N3CC4(COC4)C3)ncc2Cl)cc1)c1ccc(O[C@H]2C[C@H](Nc3ccc4c(c3)C(=O)N(C3CCC(=O)NC3=O)C4=O)C2)cc1 (some centres unmarked) [Example 202]	androgen receptor (AR) splicing variant AR-v7 (Homo sapiens)	11 to 100 nM

Continue with the molecule presented below.
Fill in the blank: the reported DC50 of CC(=O)c1nccc(COc2ccc(C(C)(C)c3ccc(OCCCCCCCCCNc4cccc5c4C(=O)N(C4CCC(=O)NC4=O)C5=O)cc3)cc2)n1 (centres unmarked) [Example 386] is ____.
1000 to 5000 nM

* * *

# assay_procedure: Pharmacokinetics in mice (plasma exposure after oral administration)
# Format: in vivo
# condition_notes: mouse, ICR mice, oral (i.g.) 3 mg/kg, read-out: After oral administration of 3 mg/kg, mouse plasma exposure AUCinf
// reported AUC(0-inf) for each item listed

Examples with their reported AUC(0-inf) follow.
compound	AUC(0-inf)
CC(C)(c1ccc(OCc2cccc(-n3ccnn3)n2)cc1)c1ccc(O[C@H]2C[C@H](Nc3ccc4c(c3)C(=O)N(C3CCC(=O)NC3=O)C4=O)C2)cc1 (some centres unmarked)	5000 to 30000 ng·h/mL
Cc1nsc(Oc2ccc(C(C)(C)c3ccc(O[C@H]4C[C@H](Nc5ccc6c(c5)C(=O)N(C5CCC(=O)NC5=O)C6=O)C4)cc3)cc2)n1 (some centres unmarked)	5000 to 30000 ng·h/mL
CC(C)(c1ccc(OCc2ccnc(-n3cc(F)cn3)n2)cc1)c1ccc(O[C@H]2C[C@@H](Nc3ccc4c(c3)C(=O)N(C3CCC(=O)NC3=O)C4=O)C2)cc1 (some centres unmarked)	100 to 1000 ng·h/mL
CN1CCC(Nc2nccc(COc3ccc(C(C)(C)c4ccc(O[C@H]5C[C@H](Nc6ccc7c(c6)C(=O)N(C6CCC(=O)NC6=O)C7=O)C5)cc4)cc3)n2)CC1 (some centres unmarked)	100 to 1000 ng·h/mL

Continue with the compound presented below.
Fill in the blank: the reported AUC(0-inf) of O=C1CCC(N2C(=O)c3ccc(N[C@H]4C[C@@H](Oc5ccc(C6(c7ccc(OCc8ccnc(N9CC%10(COC%10)C9)n8)cc7)CCCC6)cc5)C4)cc3C2=O)C(=O)N1 (some centres unmarked) is ____.
1000 to 5000 ng·h/mL

* * *

# tested_system: androgen receptor (AR) splicing variant AR-v7 (Homo sapiens)
# Construct: The degradation activity of compounds on AR-v7 in 22RV1 cells; host or cells: 22RV1 cells
# assay_procedure: Degradation activity on androgen receptor splicing variant AR-v7 in 22RV1 cells (ELISA)
# Type: cell-based
# condition_notes: AR-v7 degradation in 22RV1 cells, 48 h, class symbols
quantity_kind: DC50

Examples with their reported DC50 follow.
compound	DC50
COc1nccc(COc2ccc(C(C)(C)c3ccc(O[C@H]4C[C@H](Nc5ccc6c(c5)C(=O)N(C5CCC(=O)NC5=O)C6=O)C4)cc3)cc2)n1 (some centres unmarked) [Example 449]	11 to 100 nM
CC(C)(c1ccc(O[C@H]2C[C@@H](Nc3ccc4c(c3)C(=O)N(C3CCC(=O)NC3=O)C4=O)C2)cc1)c1ccc(N2CCc3cnc(N4CC5(COC5)C4)nc3C2)cc1 (some centres unmarked) [Example 190]	< 10 nM
Cc1cnc(N2CC3(COC3)C2)nc1COc1ccc(C(C)(C)c2ccc(O[C@H]3C[C@H](Nc4ccc5c(c4)C(=O)N(C4CCC(=O)NC4=O)C5=O)C3)cc2)cc1 (some centres unmarked) [Example 204]	< 10 nM

Fill in the blank: the reported DC50 of O=C1CCC(N2C(=O)c3ccc(N[C@H]4C[C@H](Oc5ccc(C6(c7ccc(OCc8ccnc(N9CC%10(COC%10)C9)n8)cc7)CCCC6)cc5)C4)cc3C2=O)C(=O)N1 (some centres unmarked) [Example 360] is ____.
< 10 nM

Fill in the blank: the reported DC50 of CC(C)(c1ccc(OCc2ccnc(N3CC4(COC4)C3)n2)cc1)c1ccc(OC[C@H]2CCCN2Cc2ccc3c(c2)C(=O)N(C2CCC(=O)NC2=O)C3=O)cc1 (some centres unmarked) [Example 565] is ____.
1000 to 5000 nM

* * *

# tested_system: androgen receptor (AR) splicing variant AR-v7 (Homo sapiens)
# Construct: The degradation activity of compounds on AR-v7 in 22RV1 cells; host or cells: 22RV1 cells
# Sequence (P10275 1-644 isoform P10275-3): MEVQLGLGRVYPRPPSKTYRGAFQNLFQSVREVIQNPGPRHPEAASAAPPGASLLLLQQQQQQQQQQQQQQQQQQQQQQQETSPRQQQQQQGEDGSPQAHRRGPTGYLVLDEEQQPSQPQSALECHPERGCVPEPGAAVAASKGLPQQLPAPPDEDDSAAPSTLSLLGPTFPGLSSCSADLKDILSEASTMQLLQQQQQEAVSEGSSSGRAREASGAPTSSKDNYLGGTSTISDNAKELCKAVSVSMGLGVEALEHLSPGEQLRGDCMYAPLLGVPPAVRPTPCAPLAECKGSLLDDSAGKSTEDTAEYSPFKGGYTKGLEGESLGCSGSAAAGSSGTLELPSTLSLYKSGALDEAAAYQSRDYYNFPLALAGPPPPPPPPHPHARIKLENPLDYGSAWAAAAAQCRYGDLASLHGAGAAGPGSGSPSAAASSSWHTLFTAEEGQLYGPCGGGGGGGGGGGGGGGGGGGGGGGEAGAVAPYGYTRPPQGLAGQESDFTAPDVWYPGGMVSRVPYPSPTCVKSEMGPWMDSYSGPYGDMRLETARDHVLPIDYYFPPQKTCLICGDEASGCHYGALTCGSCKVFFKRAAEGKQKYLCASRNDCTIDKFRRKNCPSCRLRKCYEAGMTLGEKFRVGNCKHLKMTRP
# assay_procedure: Degradation activity on androgen receptor splicing variant AR-v7 in 22RV1 cells (ELISA)
# Type: cell-based
# condition_notes: AR-v7 degradation in 22RV1 cells, 48 h, class symbols
// reported DC50 for each item listed

Examples with their reported DC50 follow.
molecule	quantity_kind	reported
Cc1nc(-c2ccc(Oc3ccc(C(C)(C)c4ccc(O[C@H]5C[C@@H](Nc6ccc7c(c6)C(=O)N(C6CCC(=O)NC6=O)C7=O)C5)cc4)cc3)nn2)no1 (some centres unmarked)	DC50	11 to 100 nM
CC(C)(c1ccc(OCCCCCCCOCCN2CCN(c3ccc4c(c3)C(=O)N(C3CCC(=O)NC3=O)C4=O)CC2)cc1)c1ccc(OCc2ccnc(NS(C)(=O)=O)n2)cc1 (centres unmarked)	DC50	101 to 1000 nM
CC(C)(c1ccc(OCCCOCCCNc2cccc3c2C(=O)N(C2CCC(=O)NC2=O)C3=O)cc1)c1ccc(OCc2ccnc(NS(C)(=O)=O)n2)cc1 (centres unmarked)	DC50	1000 to 5000 nM
CC(C)(c1ccc(OCc2nc(N3CC4(COC4)C3)ncc2F)cc1)c1ccc(O[C@H]2C[C@@H](Nc3ccc4c(c3)C(=O)N(C3CCC(=O)NC3=O)C4=O)C2)cc1 (some centres unmarked)	DC50	11 to 100 nM

Fill in the blank: the reported DC50 of CC(C)(c1ccc(OCc2ccnc(N3CC(O)C3)n2)cc1)c1ccc(O[C@H]2C[C@@H](Nc3ccc4c(c3)C(=O)N(C3CCC(=O)NC3=O)C4=O)C2)cc1 (some centres unmarked) is ____.
< 10 nM

Fill in the blank: the reported DC50 of CC(O)c1ccc(Oc2ccc(C3(c4ccc(O[C@H]5C[C@H](Nc6ccc7c(c6)C(=O)N(C6CCC(=O)NC6=O)C7=O)C5)cc4)CCOCC3)cc2)nn1 (some centres unmarked) is ____.
< 10 nM

Fill in the blank: the reported DC50 of CCC(CC)(c1ccc(Oc2cnc(-c3noc(C)n3)nc2)cc1)c1ccc(O[C@H]2C[C@H](Nc3ccc4c(c3)C(=O)N(C3CCC(=O)NC3=O)C4=O)C2)cc1 (some centres unmarked) is ____.
< 10 nM

Fill in the blank: the reported DC50 of CC(C)(c1ccc(OCc2ccnc(N3CC4(COC4)C3)n2)cc1)c1ccc(OC2CCCC[C@H]2Nc2ccc3c(c2)C(=O)N(C2CCC(=O)NC2=O)C3=O)cc1 (some centres unmarked) is ____.
1000 to 5000 nM

Fill in the blank: the reported DC50 of CC(C)(c1ccc(O[C@H]2C[C@@H](Nc3ccc4c(c3)C(=O)N(C3CCC(=O)NC3=O)C4=O)C2)cc1)c1ccc(N2CCc3ncnc(N4CC5(COC5)C4)c3C2)cc1 (some centres unmarked) is ____.
11 to 100 nM

Fill in the blank: the reported DC50 of Cn1cc(-c2ccc(Oc3ccc(C(C)(C)c4ccc(O[C@H]5C[C@H](Nc6ccc7c(c6)C(=O)N(C6CCC(=O)NC6=O)C7=O)C5)cc4)cc3)cn2)cn1 (some centres unmarked) is ____.
11 to 100 nM

Fill in the blank: the reported DC50 of Cc1nc(COc2ccc(C(C)(C)c3ccc(OCCCNc4cccc5c4C(=O)N(C4CCC(=O)NC4=O)C5=O)cc3)cc2)cs1 (centres unmarked) is ____.
101 to 1000 nM
